# Test system: Streptococcus pneumoniae (PISP: ATCC 49619)
# Measurement description: In vitro antibacterial activity, agar two times dilution method, MIC
# Type: cell-based
# Condition parameters: agar dilution; PISP ATCC 49619
Property name: MIC Values of Compounds, Streptococcus pneumoniae (µg/mL)

Molecule	Value measured
CCCCNCc1c(O)cc2c(c1O)-c1cc(ccc1O)C1NC(=O)C3NC(=O)C(CC(N)=O)NC(=O)C(N4CN(C)C(CC(C)C)C4=O)C(O)c4ccc(c(Cl)c4)Oc4cc3cc(c4OC3OC(CO)C(O)C(O)C3OC3CC(C)(NCc4ccccc4Br)C(O)C(C)O3)Oc3ccc(cc3Cl)C(OC3CC(C)(N)C(O)C(C)O3)C(NC1=O)C(=O)NC2C(=O)O (centres unmarked)	0.25
CCN(CC)Cc1c(O)cc2c(c1O)-c1cc(ccc1O)C1NC(=O)C3NC(=O)C(CC(N)=O)NC(=O)C(N4CN(C)C(CC(C)C)C4=O)C(O)c4ccc(c(Cl)c4)Oc4cc3cc(c4OC3OC(CO)C(O)C(O)C3OC3CC(C)(NCc4ccccc4Br)C(O)C(C)O3)Oc3ccc(cc3Cl)C(OC3CC(C)(N)C(O)C(C)O3)C(NC1=O)C(=O)NC2C(=O)O (centres unmarked)	0.5

---

# Test system: Streptococcus pneumoniae (PISP: ATCC 49619)
# Measurement description: In vitro antibacterial activity, agar two times dilution method, MIC
# Type: cell-based
# Condition parameters: agar dilution; PISP ATCC 49619
Property name: MIC Values of Compounds, Streptococcus pneumoniae (µg/mL)

Compound	Assay target	Value measured
CNC(CC(C)C)C(=O)NC1C(=O)NC(CC(N)=O)C(=O)NC2C(=O)NC3C(=O)NC(C(=O)NC(C(=O)O)c4cc(O)c(CN5CCOCC5)c(O)c4-c4cc3ccc4O)C(OC3CC(C)(N)C(O)C(C)O3)c3ccc(c(Cl)c3)Oc3cc2cc(c3OC2OC(CO)C(O)C(O)C2OC2CC(C)(NCc3cccc(Br)c3)C(O)C(C)O2)Oc2ccc(cc2Cl)C1O (stereo not drawn) [Compound I8]	Streptococcus pneumoniae (PISP: ATCC 49619)	0.063
CNC(CC(C)C)C(=O)NC1C(=O)NC(CC(N)=O)C(=O)NC2C(=O)NC3C(=O)NC(C(=O)NC(C(=O)O)c4cc(O)c(CN5CCOCC5)c(O)c4-c4cc3ccc4O)C(OC3CC(C)(N)C(O)C(C)O3)c3ccc(c(Cl)c3)Oc3cc2cc(c3OC2OC(CO)C(O)C(O)C2OC2CC(C)(NCc3ccccc3Br)C(O)C(C)O2)Oc2ccc(cc2Cl)C1O (stereo not drawn) [Compound I5]	Streptococcus pneumoniae (PISP: ATCC 49619)	0.125
CNC(CC(C)C)C(=O)NC1C(=O)NC(CC(N)=O)C(=O)NC2C(=O)NC3C(=O)NC(C(=O)NC(C(=O)O)c4cc(O)c(CN5CCOCC5)c(O)c4-c4cc3ccc4O)C(OC3CC(C)(N)C(O)C(C)O3)c3ccc(c(Cl)c3)Oc3cc2cc(c3OC2OC(CO)C(O)C(O)C2OC2CC(C)(NCc3ccc(OC)cc3)C(O)C(C)O2)Oc2ccc(cc2Cl)C1O (stereo not drawn) [Compound I12]	Streptococcus pneumoniae (PISP: ATCC 49619)	1
CNC(CC(C)C)C(=O)NC1C(=O)NC(CC(N)=O)C(=O)NC2C(=O)NC3C(=O)NC(C(=O)NC(C(=O)O)c4cc(O)c(CN5CCOCC5)c(O)c4-c4cc3ccc4O)C(OC3CC(C)(N)C(O)C(C)O3)c3ccc(c(Cl)c3)Oc3cc2cc(c3OC2OC(CO)C(O)C(O)C2OC2CC(C)(N)C(O)C(C)O2)Oc2ccc(cc2Cl)C1O (stereo not drawn) [Compound I2]	Streptococcus pneumoniae (PISP: ATCC 49619)	0.063
CCN(CC)Cc1c(O)cc2c(c1O)-c1cc(ccc1O)C1NC(=O)C3NC(=O)C(CC(N)=O)NC(=O)C(NC(=O)C(CC(C)C)NC)C(O)c4ccc(c(Cl)c4)Oc4cc3cc(c4OC3OC(CO)C(O)C(O)C3OC3CC(C)(NCc4ccc(Br)cc4)C(O)C(C)O3)Oc3ccc(cc3Cl)C(OC3CC(C)(N)C(O)C(C)O3)C(NC1=O)C(=O)NC2C(=O)O (stereo not drawn) [Compound I10]	Streptococcus pneumoniae (PISP: ATCC 49619)	0.25
CC(C)CC1C(=O)N(C2C(=O)NC(CC(N)=O)C(=O)NC3C(=O)NC4C(=O)NC(C(=O)NC(C(=O)O)c5cc(O)c(CN6CCOCC6)c(O)c5-c5cc4ccc5O)C(OC4CC(C)(N)C(O)C(C)O4)c4ccc(c(Cl)c4)Oc4cc3cc(c4OC3OC(CO)C(O)C(O)C3OC3CC(C)(NCc4cccc(Br)c4)C(O)C(C)O3)Oc3ccc(cc3Cl)C2O)CN1C (stereo not drawn) [II6]	Streptococcus pneumoniae (PISP: ATCC 49619)	0.25

---

# Tested on: Streptococcus pneumoniae (PISP: ATCC 49619)
# Measurement description: In vitro antibacterial activity, agar two times dilution method, MIC
# Format: cell-based
# Condition parameters: agar dilution; PISP ATCC 49619
Property name: MIC Values of Compounds, Streptococcus pneumoniae (µg/mL)

Compound	Assay target	Reading unit	Value measured
CCN(CC)Cc1c(O)cc2c(c1O)-c1cc(ccc1O)C1NC(=O)C3NC(=O)C(CC(N)=O)NC(=O)C(N4CN(C)C(CC(C)C)C4=O)C(O)c4ccc(c(Cl)c4)Oc4cc3cc(c4OC3OC(CO)C(O)C(O)C3OC3CC(C)(NCc4ccc(OC)cc4)C(O)C(C)O3)Oc3ccc(cc3Cl)C(OC3CC(C)(N)C(O)C(C)O3)C(NC1=O)C(=O)NC2C(=O)O (stereo not drawn) [II8]	Streptococcus pneumoniae (PISP: ATCC 49619)	µg/mL	0.25
CCCCNCc1c(O)cc2c(c1O)-c1cc(ccc1O)C1NC(=O)C3NC(=O)C(CC(N)=O)NC(=O)C(N4CN(C)C(CC(C)C)C4=O)C(O)c4ccc(c(Cl)c4)Oc4cc3cc(c4OC3OC(CO)C(O)C(O)C3OC3CC(C)(N)C(O)C(C)O3)Oc3ccc(cc3Cl)C(OC3CC(C)(N)C(O)C(C)O3)C(NC1=O)C(=O)NC2C(=O)O (stereo not drawn) [II1]	Streptococcus pneumoniae (PISP: ATCC 49619)	µg/mL	0.125
CCN(CC)Cc1c(O)cc2c(c1O)-c1cc(ccc1O)C1NC(=O)C3NC(=O)C(CC(N)=O)NC(=O)C(N4CN(C)C(CC(C)C)C4=O)C(O)c4ccc(c(Cl)c4)Oc4cc3cc(c4OC3OC(CO)C(O)C(O)C3OC3CC(C)(NCc4ccc(Br)cc4)C(O)C(C)O3)Oc3ccc(cc3Cl)C(OC3CC(C)(N)C(O)C(C)O3)C(NC1=O)C(=O)NC2C(=O)O (stereo not drawn) [II7]	Streptococcus pneumoniae (PISP: ATCC 49619)	µg/mL	0.25

---

Entries and their MIC Values of Compounds, Streptococcus pneumoniae values follow.
# Tested on: Streptococcus pneumoniae (PISP: ATCC 49619)
# Measurement description: In vitro antibacterial activity, agar two times dilution method, MIC
# Type: cell-based
# Condition parameters: agar dilution; PISP ATCC 49619
Property name: MIC Values of Compounds, Streptococcus pneumoniae (µg/mL)

Compound	Reading unit	Censor symbol	Value measured
CNC(CC(C)C)C(=O)NC1C(=O)NC(CC(N)=O)C(=O)NC2C(=O)NC3C(=O)NC(C(=O)NC(C(=O)O)c4cc(O)c(CN5CCOCC5)c(O)c4-c4cc3ccc4O)C(OC3CC(C)(N)C(O)C(C)O3)c3ccc(c(Cl)c3)Oc3cc2cc(c3OC2OC(CO)C(O)C(O)C2OC2CC(C)(NCc3ccc(Br)cc3)C(O)C(C)O2)Oc2ccc(cc2Cl)C1O (stereo not drawn)	µg/mL	≤	0.031
CCCCCCCCCCNC1(C)CC(OC2c3ccc(c(Cl)c3)Oc3cc4cc(c3OC3OC(CO)C(O)C(O)C3OC3CC(C)(NCCCCCCCCCC)C(O)C(C)O3)Oc3ccc(cc3Cl)C(O)C(NC(=O)C(CC(C)C)N(C)CCCCCCCCCC)C(=O)NC(CC(N)=O)C(=O)NC4C(=O)NC3C(=O)NC2C(=O)NC(C(=O)O)c2cc(O)c(CNCCCC)c(O)c2-c2cc3ccc2O)OC(C)C1O (stereo not drawn)	µg/mL	>	8
CCCCNCc1c(O)cc2c(c1O)-c1cc(ccc1O)C1NC(=O)C3NC(=O)C(CC(N)=O)NC(=O)C(N4CN(C)C(CC(C)C)C4=O)C(O)c4ccc(c(Cl)c4)Oc4cc3cc(c4OC3OC(CO)C(O)C(O)C3OC3CC(C)(NCc4cccc(Br)c4)C(O)C(C)O3)Oc3ccc(cc3Cl)C(OC3CC(C)(N)C(O)C(C)O3)C(NC1=O)C(=O)NC2C(=O)O (stereo not drawn)	µg/mL	=	0.25
CCCCNCc1c(O)cc2c(c1O)-c1cc(ccc1O)C1NC(=O)C3NC(=O)C(CC(N)=O)NC(=O)C(NC(=O)C(CC(C)C)NC)C(O)c4ccc(c(Cl)c4)Oc4cc3cc(c4OC3OC(CO)C(O)C(O)C3OC3CC(C)(NCc4ccc(Br)cc4)C(O)C(C)O3)Oc3ccc(cc3Cl)C(OC3CC(C)(N)C(O)C(C)O3)C(NC1=O)C(=O)NC2C(=O)O (stereo not drawn)	µg/mL	=	0.25
CCCCNCc1c(O)cc2c(c1O)-c1cc(ccc1O)C1NC(=O)C3NC(=O)C(CC(N)=O)NC(=O)C(NC(=O)C(CC(C)C)NC)C(O)c4ccc(c(Cl)c4)Oc4cc3cc(c4OC3OC(CO)C(O)C(O)C3OC3CC(C)(NCc4ccc(C(C)C)cc4)C(O)C(C)O3)Oc3ccc(cc3Cl)C(OC3CC(C)(N)C(O)C(C)O3)C(NC1=O)C(=O)NC2C(=O)O (stereo not drawn)	µg/mL	≤	0.031
CC(C)CC1C(=O)N(C2C(=O)NC(CC(N)=O)C(=O)NC3C(=O)NC4C(=O)NC(C(=O)NC(C(=O)O)c5cc(O)c(CN6CCOCC6)c(O)c5-c5cc4ccc5O)C(OC4CC(C)(N)C(O)C(C)O4)c4ccc(c(Cl)c4)Oc4cc3cc(c4OC3OC(CO)C(O)C(O)C3OC3CC(C)(NCc4ccc(C(C)C)cc4)C(O)C(C)O3)Oc3ccc(cc3Cl)C2O)CN1C (stereo not drawn)	µg/mL	=	0.25
